Reported log10 Km is given for each of the following substances.
assayed-system: GST-HsPRMT7 (Homo sapiens)
Construct: full-length human PRMT7 (residues 1–692); 34693; host or cells: E. coli BL21 DE3
Sequence (Q9NVM4 1-692): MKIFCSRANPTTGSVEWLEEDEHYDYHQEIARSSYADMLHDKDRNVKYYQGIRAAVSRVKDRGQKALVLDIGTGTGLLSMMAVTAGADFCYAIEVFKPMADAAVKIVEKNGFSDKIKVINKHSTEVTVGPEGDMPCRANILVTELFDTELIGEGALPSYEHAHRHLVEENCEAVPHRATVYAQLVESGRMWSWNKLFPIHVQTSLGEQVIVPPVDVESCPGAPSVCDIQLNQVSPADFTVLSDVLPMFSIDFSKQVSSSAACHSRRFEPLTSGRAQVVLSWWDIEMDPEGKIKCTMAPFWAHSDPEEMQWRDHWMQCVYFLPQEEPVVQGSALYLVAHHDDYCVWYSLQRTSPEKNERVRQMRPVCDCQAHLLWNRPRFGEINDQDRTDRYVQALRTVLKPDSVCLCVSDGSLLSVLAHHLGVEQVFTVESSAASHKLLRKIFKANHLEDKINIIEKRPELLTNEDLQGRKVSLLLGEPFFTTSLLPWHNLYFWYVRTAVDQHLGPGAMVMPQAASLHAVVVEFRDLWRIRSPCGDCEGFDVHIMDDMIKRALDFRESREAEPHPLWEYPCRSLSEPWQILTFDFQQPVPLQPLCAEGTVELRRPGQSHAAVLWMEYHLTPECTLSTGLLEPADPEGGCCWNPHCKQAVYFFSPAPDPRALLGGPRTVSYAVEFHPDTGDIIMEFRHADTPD
method-description: Michaelis-Menten kinetics of peptide substrate methylation (P81 phosphocellulose paper assay)
Assay type: biochemical
experimental-conditions: + 130 mM KCl; 5 μg GST-HsPRMT7, 0.14 μM [3H]-AdoMet, 60 min, 25°C; GraphPad Prism fit; read-out: Km, Michaelis-Menten best-fit value, Fig8
Use the decimal logarithm of Km (µM).

For orientation, consider the following solved cases.
>  <substance>
Ac-KKDGKKRKRSRKESY-NH2 [Hs H2B (23–37), synthetic peptide of amino acids 23–37 of human histone H2B, PRMT7 substrate used as positive control, reference compound]

>  <value-observed>
1.23

$$$$
>  <substance>
Ac-KKGGRGRKGKKY-NH2 [synthetic RXR peptide with an additional lysine after the RGR motif]

>  <value-observed>
0.39

$$$$
>  <substance>
Ac-KKGGRKRGGKKY-NH2 [synthetic RXR peptide with lysine within the motif]

>  <value-observed>
0.84

$$$$
>  <substance>
Ac-KKGGRGRGGKKY-NH2 [synthetic peptide with an RGR motif flanked by glycine and lysine residues]

>  <value-observed>
0.79

$$$$

Input line: GET /values?readout=log10 Km&item= Ac-KKGGRGGGGKKY-NH2 [Mono R, synthetic peptide with a single arginine flanked by glycine and lysine residues]
Output line: -0.55

Input line: GET /values?readout=log10 Km&item= Ac-KKGKRGRGGKKY-NH2 [synthetic RXR peptide with an additional lysine before the RGR motif]
Output line: 0.53

###

assayed-system: GST-HsPRMT7 (Homo sapiens)
Construct: full-length human PRMT7 (residues 1–692); 34693; host or cells: E. coli BL21 DE3
method-description: Michaelis-Menten kinetics of peptide substrate methylation (P81 phosphocellulose paper assay)
Type: biochemical
Set-up: key: Vmax expressed as cpm (averages of cycles 2–4)
experimental-conditions: no added salt; 5 μg GST-HsPRMT7, 0.14 μM [3H]-AdoMet, 60 min, 25°C; GraphPad Prism fit
measured-property: Vmax, Michaelis-Menten best-fit value, Fig7
// keep it numeric: no unit symbol after the value

For orientation, consider the following solved cases.
>  <substance>
Ac-KKGGRGGGGKKY-NH2 [Mono R, synthetic peptide with a single arginine flanked by glycine and lysine residues]

>  <value-observed>
262.6

$$$$
>  <substance>
Ac-KKGGRGRGGKKY-NH2 [synthetic peptide with an RGR motif flanked by glycine and lysine residues]

>  <value-observed>
1036

$$$$
>  <substance>
Ac-KKGGRKRGGKKY-NH2 [synthetic RXR peptide with lysine within the motif]

>  <value-observed>
1749

$$$$

Input line: GET /values?readout=Vmax, Michaelis-Menten best-fit value, Fig7&system=GST-HsPRMT7 (Homo sapiens)&item= Ac-KKGGRGRKGKKY-NH2 [synthetic RXR peptide with an additional lysine after the RGR motif]
Output line: 1042

Input line: GET /values?readout=Vmax, Michaelis-Menten best-fit value, Fig7&system=GST-HsPRMT7 (Homo sapiens)&item= Ac-KKGGRERGGKKY-NH2 [synthetic RXR peptide with glutamate within the motif]
Output line: 299.5

Input line: GET /values?readout=Vmax, Michaelis-Menten best-fit value, Fig7&system=GST-HsPRMT7 (Homo sapiens)&item= Ac-KKGKRGRGGKKY-NH2 [synthetic RXR peptide with an additional lysine before the RGR motif]
Output line: 1553
